Reference source: patent US9434734B2

melting point for assorted compounds

# Compound, melting point
measured = [
    ("Cl.Cn1c(=O)c2ccc(-c3ccc(N4CCCCC4)nc3)cc2n2nc(-c3ccccc3)cc12", "200 to 203 °C"),
    ("COCCc1cc2n(C)c(=O)c3ccc(-c4ccc(N)nc4)cc3n2n1.Cl [Example 53]", "198 to 202 °C"),
    ("CC(=O)c1cccc(-c2ccc3c(=O)n(C)c4cc(-c5ccccc5)nn4c3c2)c1 [Example 14]", "207 to 209 °C"),
    ("Cl.Cn1c(=O)c2ccc(-c3ccc(N)nc3)cc2n2cc(-c3ccccc3)cc12 [Example 110]", "> 250 °C"),
]
